Numbers sourced from PubChem BioAssay AID1918956.

System: OVCAR-5 complex spheroids, viability
Method description: Anticancer human tumor OVCAR-5 cell line growth inhibition; active means viability on the fitted dose curve at most 10% of control; inactive means the rest;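 further: spheroids exposed to agents for seven days; 100% = DMSO vehicle control wells viability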
Assay setup: second compound 10 µM; first compound 0.1 µM
Can you answer with just one of these options? 1 for active, -1 for inactive

# outcome recorded in this test, key = O=C(C=Cn1cnc(-c2cc(C(F)(F)F)cc(C(F)(F)F)c2)n1)NNc1cnccn1 + NC1CCC(NC2CC2c2ccccc2)CC1
-1

# outcome recorded in this test, key = CC(C)CC(NC(=O)CNC(=O)c1cc(Cl)ccc1Cl)B1OC(=O)CC(CC(=O)O)(C(=O)O)O1 (stereo not drawn) + NC1CC1c1ccc(-c2cccc(O)c2)cc1
-1

# outcome recorded in this test, key = CC(C)CC(NC(=O)C(Cc1ccccc1)NC(=O)c1cnccn1)B(O)O (stereo not drawn) + NC1CC1c1ccc(-c2cccc(O)c2)cc1
1
